molecular target: GLP-1R (Homo sapiens); test: GLP-1R Activation - cAMP Assay; type: cell-based; conditions: cAMP increase in CHO cells stably expressing GLP-1R; each compound run on one of the two cAMP assays (Assay 1 or Assay 2, not specified)
Sequence (P43220 24-463): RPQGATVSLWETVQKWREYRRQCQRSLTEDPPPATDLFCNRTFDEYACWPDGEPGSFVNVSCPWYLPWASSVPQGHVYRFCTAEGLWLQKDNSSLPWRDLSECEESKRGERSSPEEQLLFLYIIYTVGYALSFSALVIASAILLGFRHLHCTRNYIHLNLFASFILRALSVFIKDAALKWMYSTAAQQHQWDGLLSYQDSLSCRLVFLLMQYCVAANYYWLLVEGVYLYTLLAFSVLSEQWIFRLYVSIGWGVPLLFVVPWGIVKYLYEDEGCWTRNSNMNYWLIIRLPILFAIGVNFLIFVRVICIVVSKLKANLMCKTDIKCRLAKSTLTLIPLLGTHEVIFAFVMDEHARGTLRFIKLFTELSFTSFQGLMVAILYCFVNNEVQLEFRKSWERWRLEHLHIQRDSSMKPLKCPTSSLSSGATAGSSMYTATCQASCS
TEST_READOUT: pEC50
Answer as the number alone; pEC50 is minus log10 of concentration in mol/L.

# COMPOUND, TEST_READOUT, READING
rows = [
    ("CC1(C)COC[C@H]1n1c(Cc2cc(F)c(-c3cccc(OCc4ccc(C#N)cc4)n3)cc2F)nc2ccc(C(=O)O)nc21 [Example 440]", "pEC50", 9.02),
]

Given the compound CC1(C)COC[C@H]1n1c(Cc2cc(F)c(-c3cccc(OCc4ccc(C#N)cc4)n3)cc2F)nc2cc(O)c(C(=O)O)cc21 [Example 401] , what is its reported pEC50?
9.61

Given the compound COc1nnc(COc2cccc(-c3ccc(Cc4nc5c(F)cc(C(=O)O)cc5n4[C@@H]4COCC4(C)C)c(F)c3)n2)s1 [Example 309] , what is its reported pEC50?
9.43

Data provenance: patent US12570642B2
